Protocol: in vitro
Condition details: human, hela cells, % viability
T if viability at 28.5 h, 10 µM is below 90%. F if not; exact matches included in F.

>>> df
                                   molecule  assigned_label
0  COCCn1cc(C(=O)N2CCOC3CCCC32)c2ccccc21 (stereo not drawn)               T
1  CCN1CCN(C(=O)c2ccccc2N(Cc2ccccc2)S(C)(=O)=O)CC1               F
2  c1ccc2cc(-c3cc(Nc4ccc5[nH]ccc5c4)ncn3)ccc2c1               T
3  CCCCC(=O)N(C)c1c(CC)nc2c(OCCn3cccc3)cccn12               F
4  Cc1ccc2oc(C(=O)N(C)Cc3c(C)nn(C)c3C)c(C)c2c1               T
5  CN1C[C@]2(CC[C@@H](C(=O)N3CCCC3)CC2)Oc2ccccc2C1=O               F
6  CCCc1ccc(S(=O)(=O)Nc2cccc(C(=O)Nc3ccc(F)cc3)c2)cc1               F

* * *

Protocol: in vitro
Condition details: human, hela cells, % viability
Property label: viability at 28.5 h, 10 µM (%)

>>> df
                                    molecule  quantity_unit  numeric_readout
 0  Cc1ccc(SCS(=O)(=O)c2ccc(C)cc2)cc1 [CBK026853]              %             97.8
 1  COc1cc(-c2cnc(N)c(N3CCN(CCN(C)C)CC3)n2)cc(OC)c1OC [CBK063488]              %             94.4
 2  Cc1ccc(NC2CC(C)N(C(=O)c3cccc([N+](=O)[O-])c3)c3ccc(C)cc32)cc1 (centres unmarked) [CBK293929]              %             86.5
 3  O=C(O)[C@@H]1CSC(c2ccc(C(F)(F)F)cc2)N1 (some centres unmarked) [CBK286921]              %             87.7
 4  O=C(CCc1ccc(F)cc1)N1CCC(CC(=O)N2CCN(c3ccccc3)CC2)CC1 [CBK286245]              %              108
 5  Cc1c(C(c2ccc3ccccc3c2)c2c(C)n(C)n(-c3ccccc3)c2=O)c(=O)n(-c2ccccc2)n1C [CBK261692]              %             95.9
 6  O=C(O)CCS(=O)(=O)c1nc(-c2ccccc2)cc(C(F)(F)F)n1 [CBK268832]              %              104
 7  CN1CCCN(c2cncc(-c3cccs3)n2)CC1 [CBK065542]              %              101
 8  O=C(NCCc1ccc(Cl)cc1)C1(Cc2ccc(-c3cccnc3)cc2)CCOCC1 [CBK285589]              %             94.6
 9  O=C(O)CC(Cc1ccccc1)C(=O)Nc1ccc(F)cc1 (centres unmarked) [CBK286841]              %             96.1
10  COc1ccc(CCN(Cc2ccc(Cl)c(Cl)c2)C(=O)Nc2cccnc2)cc1OC [CBK158797]              %             96.1
11  CCc1nn2c(=O)cc(CNc3ccc4c(c3)OCCO4)nc2s1 [CBK297787]              %             99.2
12  CC1CCCN(CC(C)(C)NC(=O)c2ccnn2C(F)F)C1 (centres unmarked) [CBK282099]              %             98.4
13  CC(NC(=O)COc1ccc(Br)cc1)C(=O)O (centres unmarked) [CBK262083]              %             87.4
14  C/C(=N\NC(=O)c1ccccc1I)c1cccc(N)c1 [CBK260935]              %              107
15  Cc1ccc(C(=O)Nc2ccc(C(=O)O)cc2)cc1S(=O)(=O)NCc1ccccc1 [CBK263219]              %              101
16  CC(C)CNS(=O)(=O)c1ccc(CCC(=O)O)cc1 [CBK287107]              %             80.9
17  Cc1cc(Br)ccc1NC(=O)Cn1cnc2c1c(=O)n(C)c(=O)n2C [CBK133289]              %             95.6
18  CCNc1cccnc1N1CCN(CCc2cc(C)c(O)c(C)c2)CC1 [CBK024361C]              %              108
19  Cc1cnn(-c2cc(N3CCC(n4cc(C5CC5)nn4)CC3)ncn2)c1 [CBK306721]              %             96.2
20  OCCCCn1c(-c2cccnc2)n[nH]c1=S [CBK288365]              %             88.6
21  COc1ccc2c(c1)C1(CC(=O)N(CC(=O)N(C)C)C1=O)C(=O)N2Cc1ccc2ccccc2n1 (centres unmarked) [CBK075923]              %             93.7
22  O=S(=O)(c1ccc(Oc2ccc(S(=O)(=O)N3CCCCCC3)cc2)cc1)N1CCCCCC1 [CBK261729]              %               99
23  Cc1oc2nc(CSc3ccc4ccccc4c3)[nH]c(=O)c2c1C(=O)O [CBK296645]              %             92.4
24  COc1nccnc1-c1cnn(Cc2ccccc2)c1 [CBK107090]              %              101
25  Cc1n[nH]c(-c2ccccc2NC(=O)Cc2sc(C)nc2-c2cccs2)n1 [CBK297737]              %             88.5
26  Cc1[nH]nc2c1C(c1ccc(Cl)cc1)N(CCc1c[nH]c3ccccc13)C2=O (centres unmarked) [CBK287919]              %              114
27  O=C(Nc1nnc(Cc2cccs2)o1)c1ccccc1 [CBK287831]              %             83.9
28  CC1CN(C)c2ccccc2CN1C(=O)Cc1cn2ccsc2n1 (centres unmarked) [CBK306355]              %             89.1
29  c1cncc(COc2nc3ccccc3nc2N2CCCC2)c1 [CBK115762]              %             93.4
30  CC(CCCC(C)(C)O)NS(=O)(=O)c1ccc(-c2ccon2)s1 (centres unmarked) [CBK062466]              %             93.8
31  CC(=O)N(C)c1ncc(Br)cc1C(=O)NCC1COc2ccccc2O1 (centres unmarked) [CBK076558]              %             91.7
32  CC(NC1=NC(C)(C)Cc2ccccc21)C(=O)O (centres unmarked) [CBK262575]              %               89
33  CCOC(=O)C1CCCN(CCC(=O)Nc2cc(C)ccc2C)C1 (centres unmarked) [CBK264287C]              %             95.7
34  O=C(O)c1sc2ncccc2c1NS(=O)(=O)c1cc(Cl)sc1Cl [CBK050650]              %             78.2
35  Cc1ccc(-c2cn(S(=O)(=O)c3cccc4nsnc34)nc2N)cc1 [CBK268871]              %              113
36  CCCCSc1nc(N)cc(N2CCOCC(CN(C)C)C2)n1 (centres unmarked) [CBK306659]              %              103
37  COc1cc(NS(=O)(=O)c2ccc(NC(=O)c3cccc4ccccc34)cc2)nc(OC)n1 [CBK262465]              %             96.6

The measured values listed here are drawn from paper PMC12040169.
